Cited source for all entries: ChEMBL document CHEMBL1201862

# Tested on: MDA-N
# assay-text: NCI tumour cell line growth inhibition, 48 h
The source made the active and inactive calls. No stated cut-off is given here; in the data, active = GI50 up to about 1.1 µM and inactive = higher.
Classes used: y = active, n = inactive

• COc1nc(C#CCCCC#N)nc(OC)n1 = n
• O=C1C(Cl)=C(N2CCC[C@@H]2CO)C(=O)c2c(O)ccc(O)c21 = n
• COc1ccc(-c2cc(-c3ccc(Cl)cc3)n(C3OC(CO)C(O)C(O)C3O)c(=S)c2C#N)cc1 (configuration not stated) = n
• CCCCCCCCCCCCCCCCCCOCC(CO[PH](=O)O)OCCCCCCCCCCCCCCCCCC (configuration not stated) = n
• C/C(=N\N=C(N)N)c1c(C(=O)OCCCCCCOC(=O)c2nc3sccn3c2/C(C)=N/N=C(N)N)nc2sccn12 = n
• CCCCOCn1c(=O)[nH]c(=O)c2cc(Br)ccc21 = n
• CCOC(=O)c1csc(NC(=O)CN2CCN(C)CC2)n1 = n
• CN(CCCNC(=O)c1nn(-c2ccc(Cl)cc2Cl)c2c1Cc1ccccc1-2)CCCNC(=O)c1nn(-c2ccc(Cl)cc2Cl)c2c1Cc1ccccc1-2 = n
• CC1CCC(=O)C(C(=O)CC2CC(=O)NC(=O)C2)C1 (configuration not stated) = n
• N#Cc1c(O)c(/N=N/c2ccc(Cl)cc2)c(=O)n2c1[nH]c1ccccc12 = n
• CC1OC(OC2C(OC3CCC4(C)C(CCC5(C)C4CC=C4C6CC(C)(C)CCC6(C(=O)O)CCC45C)C3(C)CO)OCC(O)C2O)C(O)C(O)C1O (configuration not stated) = n
• COc1cc(O)c(C(C)=O)c(O)c1 = n
• COc1ccc(NC(=O)CSC(=O)c2ccccc2)c(SCCSSCCSc2cc(OC)ccc2NC(=O)CSC(=O)c2ccccc2)c1 = n
• CC(NC(=O)OC(C)(C)C)C(=O)C(N)=O (configuration not stated) = n
• CC(=O)O[C@@H]1[C@H](C(C)C)[C@@H](OC(C)=O)C/C(C)=C/CC[C@]2(C)O[C@@H]12 = n
• CCC(=O)Oc1c2ccsc2c(OC(=O)CC)c2ccsc12 = y
• O=c1c2ccccc2oc2c1ccc1ncccc12 = n
• O=C(Cc1ccccc1)NNc1nc(NNC(=O)c2ccncc2)nc(Nc2ccc([N+](=O)[O-])cc2)n1 = n
• COc1cc(-c2cc(=O)c3cc4c(=O)cc(-c5cc(OC)c(OC)c(OC)c5)oc4cc3o2)cc(OC)c1OC = n
• CC(C)=CCC/C(C)=C/CC/C(C)=C/CC/C(C)=C/CC/C(C)=C/CC/C(C)=C/CC/C(C)=C/CC/C(C)=C/CC/C(C)=C/CO = n
• COc1ccc(/C=C/C(=O)Oc2ccc(/C=C3\CCCCC3=O)cc2)cc1 = n
• Nc1ncnc2c1ncn2C1OC(CO)C(O)C1O (configuration not stated) = n

====

# Tested on: OVCAR-8
# assay-text: NCI tumour cell line growth inhibition, 48 h
Active and inactive are the calls of the source. Rule as the data show it: active = GI50 up to about 1.1 µM and inactive = higher.
Quick reference for GI50 among some compounds
quantity-name: GI50

* N#Cc1c(O)c(/N=N/c2ccc(Cl)cc2)c(=O)n2c1[nH]c1ccccc12 | 37.8 µM (inactive)
* CC(=O)OC1COC(N2C(=O)/C(=N\NC(N)=S)c3cc(Br)ccc32)C(OC(C)=O)C1OC(C)=O (stereo unspecified) | 49.1 µM (inactive)
* COc1ccc(NC(=O)CC(=O)n2nc(-c3ccccc3)c(/N=N/c3ccc(C)cc3)c2-c2ccccc2)cc1 | 21.7 µM (inactive)
* Clc1ccc2c(NCCNC3CCCCC3)ccnc2c1 | 10.7 µM (inactive)
* Clc1cc(Cl)cc(/N=C/C=C/Nc2cc(Cl)cc(Cl)c2)c1 | 20.4 µM (inactive)
* CC1(C)C=C(/C=N/Nc2ccc([N+](=O)[O-])cc2)C(C#N)=C(O)C1(C#N)C#N | > 100 µM (inactive)

====

# Test system: PC-3
# assay-text: NCI tumour cell line growth inhibition, 48 h
Calls of active or inactive are those of the source. Rule as the data show it: active = GI50 up to about 1.1 µM and inactive = higher.
Quick reference for GI50 among some molecules
quantity-name: GI50

- CCN(CC)C(=S)SC(C(=O)Nc1nnc(-c2ccccc2)o1)c1ccccc1 (stereo not drawn): 19.3 µM (inactive)
- C[C@H](O)C1CC(Cn2nnc3c(N)ncnc32)C1(C)C (stereo partly drawn): > 100 µM (inactive)
- CCOP(=O)(OCC)/C(C#N)=C/c1nccn1C: > 100 µM (inactive)
- COc1ccc(-c2nc(O)c3ccccc3n2)cc1OC: > 100 µM (inactive)
- O=C1CC(Cc2n[nH]c3c2CCCC3)CC(=O)N1: > 100 µM (inactive)
- Cc1cc(-c2nc3cc(F)ccc3s2)ccc1NC(=O)C(C)N (stereo not drawn): 4.13 µM (inactive)
- O=C(Cc1nc2ccc(C(=O)c3ccccc3)cc2nc1O)C(=O)Nc1ccc(Br)cc1: 88.1 µM (inactive)
- COc1cc(-c2oc3c(OC)c(O)c(OC)c(O)c3c(=O)c2OC)ccc1O: 48.9 µM (inactive)
- NC1=CN2c3ccccc3N(CC(=O)O)C2C=C1 (stereo not drawn): > 100 µM (inactive)
- CCCCC/C=C1\CC(CO)(COC(=O)CC(C(C)C)C(C)C)OC1=O (stereo not drawn): 10.5 µM (inactive)
- Cc1cn([C@@H]2O[C@H](CO[Si](C)(C)C(C)(C)C)[C@]3(O[C@H]3C(=O)NN)[C@H]2O[Si](C)(C)C(C)(C)C)c(=O)[nH]c1=O: 4.6 µM (inactive)
- Oc1ccc(SCc2ccc(NCc3ccccc3)cc2)cc1: 18.9 µM (inactive)
- Cc1ccc([N+](=O)[O-])cc1S(=O)(=O)Nc1ccc(C2=NN(S(=O)(=O)c3cc([N+](=O)[O-])ccc3C)C(c3ccccc3O)C2)cc1 (stereo not drawn): > 100 µM (inactive)

====

Quick reference for GI50 among some compounds
# Tested on: CAKI-1
# assay-text: NCI tumour cell line growth inhibition, 48 h
Activity calls are given as the source filed them. Cut-off read from the data, not from the text of the source: active = GI50 up to about 1.1 µM and inactive = higher.
quantity-name: GI50

- C/C(=N\N=C(N)N)c1c(C(=O)OCCCCCCOC(=O)c2nc3sccn3c2/C(C)=N/N=C(N)N)nc2sccn12: > 100 µM (inactive)
- Cc1ccc(C(=O)C(C)N)cc1C (stereo unspecified): > 100 µM (inactive)
- C[N+](C)(N)Cc1nc(-c2ccc(Cl)cc2)no1: > 100 µM (inactive)
- CCCN(CCCC(NC(C)=O)C(=O)NCc1ccccc1)C(=O)NCCCl (stereo unspecified): > 100 µM (inactive)
- COc1ccc(C2=Nc3cc(C)c(C)cc3NC(c3ccccc3)C2)cc1 (stereo unspecified): > 100 µM (inactive)
- O=C(NC(=O)c1cn(CCN2CCNCC2)c(=O)[nH]c1=O)OCc1ccccc1: > 100 µM (inactive)
- NC1=NCCN1CC(=O)O: > 10000 µM (inactive)
- CC(C)OP(=O)(OC(C)C)c1c(N)n[nH]c1Nc1ccccc1: > 100 µM (inactive)
- CC(O)=C1C(=O)CCC1=O: > 100 µM (inactive)
- CCCCCCCCCCCCCCCCCCOCC(O)CO (stereo unspecified): 3.57 µM (inactive)
- CCN(CC)C(=O)CCNC(C)Cc1c[nH]c2ccccc12 (stereo unspecified): > 100 µM (inactive)
- O=C1OC2C=CC1C1(CCOC1=O)C2 (stereo unspecified): > 100 µM (inactive)
- OC1(c2ccc3ccccc3c2)c2ccc3ccccc3c2C2=NCCN21 (stereo unspecified): > 100 µM (inactive)
- Clc1ccc(CSC2=NCCN2)cc1Cl: 11.2 µM (inactive)
- COc1ccc2cc(/C=N\NC(=O)Nc3ccc([N+](=O)[O-])cc3)ccc2c1: 13.5 µM (inactive)
- O=C(Nc1nnc(S)[nH]1)C(=O)C1C(=O)Nc2ccccc2[S+]1[O-] (stereo unspecified): > 100 µM (inactive)

====

# System: HOP-18
# assay-text: NCI tumour cell line growth inhibition, 48 h
Active and inactive are the calls of the source. No stated cut-off is given here; in the data, active = GI50 up to about 1.1 µM and inactive = higher.
Classes used: 1 = active, -1 = inactive

- COc1c(O)c(O)cc2c1-c1ccc(OC)c(=O)cc1C(NC(C)=O)CC2 (stereo not drawn): -1
- O=C1OC(c2ccc(Cl)c3ccccc23)c2ccccc21 (stereo not drawn): -1
- CC(=O)Oc1cc2c(cc1OC(C)=O)OCC(c1ccc(C)cc1)C2 (stereo not drawn): -1
- O=C(Nc1cccs1)c1c(O)[nH]c(=S)[nH]c1=O: -1
- Cn1cnnc1Sc1c([N+](=O)[O-])ncn1C: -1
- CO[C@@H]1C=C[C@@]23c4cc5c(cc4C(=O)O[C@H]2CN(C)[C@H]3C1)OCO5: -1
- CC1=C2C(=O)C(C)(C)C=C2C(=O)[C@](C)(O)C12CC2 [DEHYDROILLUDIN M]: 1
- CC1(C)COC(C23C4C5C2C2C3C4C52I)=N1 (stereo not drawn): -1

====

# Tested on: SK-OV-3
# assay-text: NCI tumour cell line growth inhibition, 48 h
Active and inactive are the calls of the source. Cut-off read from the data, not from the text of the source: active = GI50 up to about 1.1 µM and inactive = higher.
quantity-name: GI50

- CC1(C(=O)O)CCC[C@@]2(C)C1CC[C@@]1(C)c3cocc3CCC21 (stereo partly drawn): > 100 µM (inactive)
- O=C(Nc1cccc([N+](=O)[O-])c1)/C(=N\NC(=O)c1ccncc1)c1nc2ccc([N+](=O)[O-])cc2nc1O: > 100 µM (inactive)
- Cc1ccc(N)cc1.O=S(=O)(O)/C(=C\c1ccccc1)c1ccccc1: > 100 µM (inactive)
